Biological target: T1, mouse PD-1 expressed on cells (mouse, UniProt Q02242 25-288)
T1 construct: whole, on cells
T1 sequence (looked up): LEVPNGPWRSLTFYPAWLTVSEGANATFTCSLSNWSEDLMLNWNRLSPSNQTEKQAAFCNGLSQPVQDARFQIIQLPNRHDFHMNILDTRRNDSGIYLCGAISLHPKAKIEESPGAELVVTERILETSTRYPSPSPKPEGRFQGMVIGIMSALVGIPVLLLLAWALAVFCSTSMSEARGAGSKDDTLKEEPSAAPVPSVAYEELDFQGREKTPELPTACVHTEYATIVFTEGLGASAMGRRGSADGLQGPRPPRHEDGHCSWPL
Assay: flow cytometry, mPD1-293 cells
Here, each record is paired with measured pEC50 data.
By convention, pEC50 is the negative base-10 log of a molar concentration.

>  <binder>
R3A9 (antibody, V domains shown, also called 7115A; mPD1 parental (R3A9)) VH: QVQLVQSGAEVKKPGASVKVSCKASGHTFTSYYIHWVRQAPGQGLEWMGIINPSGGSTSYAQKFQGRVTMTRDTSTSTVYMELSSLRSEDTAVYYCARDRAYGGAGDYWGQGTLVTVSS VL: DIQMTQSPSSLSASVGDRVTITCRASQSVGTWLAWYQQKPGKAPKLLIYSASTLQSGVPSRFSGSGSGTDFTLTISSLQPEDFATYYCQQSYSAPLTFGGGTKVEIK

>  <readout-value>
9.50

$$$$
>  <binder>
m4D1 (antibody, V domains shown, R3A9 derivative) VH: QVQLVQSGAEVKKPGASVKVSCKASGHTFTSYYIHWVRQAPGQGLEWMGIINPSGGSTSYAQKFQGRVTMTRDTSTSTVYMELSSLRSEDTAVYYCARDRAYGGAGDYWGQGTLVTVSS VL: DIQMTQSPSSLSASVGDRVTITCRASQSISAWLAWYQQKPGKAPKLLIYKASSLESGVPSRFSGSGSGTDFTLTISSLQPEDFATYYCQQSYSPPATFGGGTKVEIK

>  <readout-value>
8.94

$$$$
>  <binder>
m3A7 (antibody, V domains shown, R3A9 derivative; also called 7115C) VH: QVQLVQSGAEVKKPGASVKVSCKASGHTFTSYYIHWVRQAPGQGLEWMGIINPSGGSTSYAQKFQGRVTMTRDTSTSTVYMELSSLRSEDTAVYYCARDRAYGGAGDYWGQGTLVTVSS VL: DIQMTQSPSSLSASVGDRVTITCRASRSISNWLAWYQQKPGKAPKLLIYAASSLQSGVPSRFSGSGSGTDFTLTISSLQPEDFATYYCQQSYSAPVTFGQGTKVEIK

>  <readout-value>
9.22

$$$$

### Prompt // pEC50 lookup, key: m2C1 (antibody, V domains shown, R3A9 derivative; also called m3CM (apparent misprint)) VH: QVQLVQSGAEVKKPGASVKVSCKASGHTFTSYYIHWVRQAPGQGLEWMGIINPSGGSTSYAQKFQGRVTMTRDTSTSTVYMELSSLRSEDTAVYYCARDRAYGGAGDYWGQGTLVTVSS VL: DIQMTQSPSSLSASVGDRVTITCRASRSISSWLAWYQQKPGKAPKLLIYAASSLQSGVPSRFSGSGSGTDFTLTISSLQPEDFATYYCQQSYSIPATFGQGTKVEIK
### Response 9.39

The measurements presented in this section are drawn from patent US20230416363A1.
